targetOrTestSystem: Chromo domain-containing protein 1 (Saccharomyces cerevisiae (strain ATCC 204508 / S288c) (Baker's yeast)) (UniProt P32657)
Sequence (P32657 whole entry, the tested form may be a part): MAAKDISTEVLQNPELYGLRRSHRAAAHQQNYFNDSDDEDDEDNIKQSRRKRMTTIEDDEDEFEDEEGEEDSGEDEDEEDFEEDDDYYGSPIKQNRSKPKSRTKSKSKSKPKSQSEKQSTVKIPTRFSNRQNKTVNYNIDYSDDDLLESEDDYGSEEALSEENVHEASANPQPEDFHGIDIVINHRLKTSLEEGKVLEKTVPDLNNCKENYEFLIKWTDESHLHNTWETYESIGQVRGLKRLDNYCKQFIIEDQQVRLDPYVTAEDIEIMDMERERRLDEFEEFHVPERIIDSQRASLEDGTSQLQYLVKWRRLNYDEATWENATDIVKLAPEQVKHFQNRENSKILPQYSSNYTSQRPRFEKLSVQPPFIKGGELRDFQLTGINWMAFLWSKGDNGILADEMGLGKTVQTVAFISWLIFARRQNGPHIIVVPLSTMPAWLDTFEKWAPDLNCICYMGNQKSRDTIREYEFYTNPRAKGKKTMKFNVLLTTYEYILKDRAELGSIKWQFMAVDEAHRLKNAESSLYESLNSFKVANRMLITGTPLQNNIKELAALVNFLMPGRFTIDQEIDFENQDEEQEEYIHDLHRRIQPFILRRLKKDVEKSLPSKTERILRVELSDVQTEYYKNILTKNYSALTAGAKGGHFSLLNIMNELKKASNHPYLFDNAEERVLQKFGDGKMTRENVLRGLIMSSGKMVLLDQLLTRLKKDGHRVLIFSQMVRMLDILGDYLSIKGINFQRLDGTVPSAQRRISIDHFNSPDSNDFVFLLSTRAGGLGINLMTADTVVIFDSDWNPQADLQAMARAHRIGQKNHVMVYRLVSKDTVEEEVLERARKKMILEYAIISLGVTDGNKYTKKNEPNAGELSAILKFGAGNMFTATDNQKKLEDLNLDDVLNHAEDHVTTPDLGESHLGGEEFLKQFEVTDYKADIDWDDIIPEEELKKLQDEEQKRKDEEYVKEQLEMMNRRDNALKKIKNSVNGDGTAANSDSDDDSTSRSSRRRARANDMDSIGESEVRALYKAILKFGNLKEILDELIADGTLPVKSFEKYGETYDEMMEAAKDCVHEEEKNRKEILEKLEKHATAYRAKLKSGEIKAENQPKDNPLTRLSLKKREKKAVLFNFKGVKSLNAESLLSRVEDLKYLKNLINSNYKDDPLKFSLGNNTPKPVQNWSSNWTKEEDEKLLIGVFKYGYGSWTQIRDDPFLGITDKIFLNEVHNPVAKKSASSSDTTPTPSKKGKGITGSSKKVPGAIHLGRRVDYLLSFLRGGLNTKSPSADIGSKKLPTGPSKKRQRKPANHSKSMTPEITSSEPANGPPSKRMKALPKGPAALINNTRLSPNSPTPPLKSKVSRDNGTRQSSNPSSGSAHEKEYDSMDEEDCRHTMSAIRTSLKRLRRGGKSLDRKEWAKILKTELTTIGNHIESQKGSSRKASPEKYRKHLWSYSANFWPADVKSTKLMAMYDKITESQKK
experiment: ScCHD-1 Enzyme Inhibition Assay; also: in the data most compounds retested in dose-response had high values
Assay type: functional
Design: scale not given: direction of the effect not stated beside the values
studyConditions: 30 µM
Would you mind telling me the reported Percent Effect of each entry?
Kindly provide the numeric value in % only, without the unit symbol.

For the compound O=C(NCCc1cccnc1)N1CCCC1c1ccsc1 (stereo not drawn) , give its reported Percent Effect.
-9.16

Quickly give me recorded Percent Effect for c1csc(-c2nc(CN3CCn4c(nnc4C4CC4)C3)co2)c1
-5.6

Complete the entry with Percent Effect for CC(C)c1nc(C2CCCN2CC(=O)Nc2nncs2)no1 (stereo not drawn)
23.5

Identify measured Percent Effect corresponding to CN(Cc1ccccc1)CC(O)Cn1cnc2ccccc2c1=O (stereo not drawn)
0.379

Please indicate Percent Effect recorded for CCc1noc(C(C)N2CCC(N3CCCC3)CC2)n1 (stereo not drawn)
-10.6

Please list Percent Effect recorded for the compound CCOC(=O)N1CCN(C(=O)c2sc(-c3ccc(F)cc3)nc2C)CC1
-3.55

Return value of Percent Effect for input O=C(NCCC1=CCCCC1)C1CCCN(c2ccc3nncn3n2)C1 (stereo not drawn) , no commentary.
-1.71

Identify measured Percent Effect corresponding to Cc1nc(CN(C)C2CCN(Cc3ccc4ccccc4n3)C2)no1 (stereo not drawn)
-10.1

###

Assignment: determine reported Percent Effect for the given molecules.
Tested on: Trypanosoma cruzi
experiment: Trypanosoma cruzi phosphomannomutase and mannose-1-phosphate guanylyltransferase assay
Type: functional
Parameters: scale not given: direction of the effect not stated beside the values
studyConditions: 10 µM
Answer format: numeric, % implied, no suffix.

Retrieve Percent Effect measured for CCOc1ncccc1NC(=O)NC1CCCN(c2ncccn2)C1 (stereo unspecified) and print it.
4.66

Answer with the recorded Percent Effect of CCOC1COC2(CCN(Cc3cccc(F)c3)CC2)C1 (stereo unspecified) only.
-1.13

Entry CN(CC(=O)N1CCCN(Cc2cscn2)CC1)c1cnccn1 needs its Percent Effect filled in; supply it.
-4.29

Retrieve Percent Effect measured for Cc1cc(C)n(CCC(=O)N2CCCC(n3cncn3)C2)n1 (stereo unspecified) and print it.
2.01

Answer with the recorded Percent Effect for the molecule listed here: FC(F)(F)Cn1ccnc1CN1CCCC1c1noc(C2CC2)n1 (stereo unspecified)
-3.01

Please give the documented Percent Effect of CC(C)CN1CCC2(CCN(Cc3ccsc3)CC2)C1=O
0.938

###

targetOrTestSystem: AMP-activated protein kinase, AMPK (Homo sapiens) (UniProt P54646+O43741+P54619+Q9UGJ0+Q9Y478+Q13131+Q9UGI9)
experiment: AMP-dependent Kinase enzyme assay. An in vitro enzyme assay that detects ADP turnover that is directly proportional to AMPK activity. This uses naive AMPK that is activated during the assay with MK-8722
Format: functional
Parameters: scale not given: direction of the effect not stated beside the values
studyConditions: 30 µM
valueType: Percent Effect (%)
Expressed in %, but write only the number.

Tell us which Percent Effect value is on record for CCn1cnnc1CCNS(=O)(=O)N1CCCC1c1ccco1 (configuration not stated)
-10.7

Identify Percent Effect associated with the compound CCN(C)Cc1cccc(CNC(=O)CSCc2ccccn2)c1
4.61

Identify measured Percent Effect corresponding to CCC(C)Oc1ccc(CNCCNC(C)=O)cc1OC (configuration not stated)
2.89

Given the compound CCC(NC(=O)c1cnc(N(C)C)nc1C)c1ccc(S(C)(=O)=O)cc1 (configuration not stated) , write its reported Percent Effect.
-4.95

For the compound NC1CCCN(Cc2cccc(C(F)(F)F)c2)C1=O (configuration not stated) , give its reported Percent Effect.
-0.911

Give the measured Percent Effect for CNCC(=O)NC1CC(C)(C)Cc2nc(C(C)(C)C)ncc21 (configuration not stated)
-7.88

Find the measured Percent Effect of COCCC(C)NCc1ccccc1-n1ccnc1 (configuration not stated) and report it.
-0.71

Using the record for O=C(NCC1CCOC1)c1cc(-c2ccc(F)cc2)[nH]n1 (configuration not stated) , state its measured Percent Effect.
-0.741

Provide one value: measured Percent Effect of COCCNc1ncnc2c1CCN(C(=O)CC1CCC(=O)N1)CC2 (configuration not stated)
15.1

Please list Percent Effect recorded for the compound CCNC(=O)CN1CCc2c(Br)ccc(F)c2C1
-1.06

Return the recorded Percent Effect value; entry: CCOCCC(=O)NCC1CCCO1 (configuration not stated)
0.034

Respond only with Percent Effect recorded for Cc1ccc(C(C)N(C)C(=O)c2ccc(=O)n(C)c2)s1 (configuration not stated)
3.36
